Reported cell viability by item:
Tested on: K562;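 further: after 48 h exposure read by CellTiter-Glo luminescence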
assay-notes: cell viability relative to vehicle control; higher = less cytotoxic
test-conditions: 10 µM; SRSF2 genotype: SRSF2 wt/wt
Answer in %, number only, no unit symbol.

Below, each entry is followed by its recorded cell viability result.
compound="COc1cc(C2Oc3ccc(C4Oc5cc(O)cc(O)c5C(=O)C4O)cc3OC2CO)ccc1O (centres undefined)" value_measured=85.4
compound=CC(C)(C)c1cc(C(C)(C)C)c(NC(=O)c2c[nH]c3ccccc3c2=O)cc1O value_measured=76.1
compound=Cc1cnc(C(=O)O)c[n+]1[O-] value_measured=97.6

Now for another entry.
Request: Reported cell viability, compound COc1nc(C)cnc1NS(=O)(=O)c1cccnc1-c1ccc(-c2nnco2)cc1 [Zibotentan (ZD4054)] : ____
Result: 98.4
